// data source = ChEMBL document CHEMBL1201862

Give measured GI50 for each item. Keep answers brief.
Tested on: SK-MEL-2
Test: NCI tumour cell line growth inhibition, 48 h
Active and inactive are the calls of the source. No stated cut-off is given here; in the data, active = GI50 up to about 1.1 µM and inactive = higher.

# get_value(readout= GI50, system= SK-MEL-2) for c1ccc(-c2cc(-c3cc(-c4ccccc4)n(-c4ccccc4)n3)nn2-c2ccccc2)cc1
> 100 µM (inactive)

Form field: GI50 recorded for COc1ccc2oc(=O)cc(C)c2c1 with SK-MEL-2 (enter value)
> 100 µM (inactive)

Request: GI50, test system SK-MEL-2, entry COc1cccc2c1OC(c1ccc(C#N)cc1)C([N+](=O)[O-])=C2 (stereo not given)
2.01 µM (inactive)

State its GI50 on SK-MEL-2: CCOC(=O)Cn1c(C)nc2nn(Cc3ccccc3)cc2c1=O
> 100 µM (inactive)

Recall the recorded GI50 for N/C(=N\c1ccc(Cl)cc1)NS(=O)(=O)c1ccc(S(=O)(=O)c2ccccc2)s1 with SK-MEL-2 and state it.
14.1 µM (inactive)

// lookup GI50 | system=SK-MEL-2 | key= [O-][S+]1c2ccccc2N=C(c2ccc3ccccc3c2)CC1c1ccccc1F (stereo not given)
> 100 µM (inactive)

// lookup GI50 | system=SK-MEL-2 | key= COC(=O)[C@H]1C2CC[C@@H]3C45C[C@@H](c6ccoc6)O[C@@H]4O[C@@H](O2)C31CCC5C (stereo not given in full)
71.1 µM (inactive)

Short answer please: GI50, SK-MEL-2, entry Cc1ccc(C(O)/C(=N/N)c2nc3ccc([N+](=O)[O-])cc3nc2O)cc1 (stereo not given)
> 100 µM (inactive)

Field: GI50 (SK-MEL-2). Entry: COc1ccc(C(=O)C(C(=O)C(=O)Nc2ccc(Cl)c(Cl)c2)c2ccc(OC)cc2)cc1 (stereo not given)
> 100 µM (inactive)

Requested read-out GI50, target or system SK-MEL-2, entry CN/N=C(/CC(=O)c1sc(NNC(C)=O)nc1C)C(=O)Nc1ccc(OC)cc1OC
> 100 µM (inactive)
